reportedProperty: melting point

Worked examples, 10 compounds total:
[[record]]
compound = "COC(=O)c1ccc(-c2nn(-c3ccc(OC)cc3)c3cc[se]c23)o1 [Compound 42]"
recordedmeasurement = "89 to 92 °C"

[[record]]
compound = "COC(=O)c1ccc(-c2nn(-c3ccccc3)c3cc[se]c23)o1 [Compound 34]"
recordedmeasurement = "144 to 147 °C"

[[record]]
compound = "O=C(O)c1ccc(-c2nn(-c3ccccc3)c3cc[se]c23)o1 [Compound 48]"
recordedmeasurement = "234 to 237 °C"

[[record]]
compound = "O=C(O)CCC(=O)OCc1ccc(-c2nn(Cc3ccccc3)c3cc[se]c23)o1 [Compound 60]"
recordedmeasurement = "111 to 114 °C"

[[record]]
compound = "Cc1cc2c([se]1)c(-c1ccc(CO)o1)nn2Cc1ccccc1 [Compound 58]"
recordedmeasurement = "147 to 148 °C"

[[record]]
compound = "COC(=O)c1ccc(-c2nn(-c3ccccc3)c3cc(C)[se]c23)o1 [Compound 35]"
recordedmeasurement = "155 to 157 °C"

[[record]]
compound = "Cc1cc2c([se]1)c(-c1ccc(C(=O)O)o1)nn2-c1ccccc1 [Compound 49]"
recordedmeasurement = "236 to 239 °C"

[[record]]
compound = "OCc1ccc(-c2nn(Cc3ccccc3)c3[se]ccc23)o1 [Compound 81]"
recordedmeasurement = "130.2 to 131.3 °C"

[[record]]
compound = "COC(=O)c1ccc(-c2nn(-c3ccccc3)c3[se]ccc23)o1 [Compound 78]"
recordedmeasurement = "167 to 169 °C"

[[record]]
compound = "OCc1ccc(-c2nn(Cc3ccccc3)c3cc[se]c23)cc1 [Compound 69]"
recordedmeasurement = "158 to 160 °C"


[in] Give the reported melting point for this compound. O=C(O)c1ccc(-c2nn(Cc3ccccc3)c3cc[se]c23)o1 [Compound 59]
[out] 243 to 244 °C

[in] Return the recorded melting point value; entry: COC(=O)c1ccc(-c2nn(Cc3ccccc3)c3cc[se]c23)cc1 [Compound 67]
[out] 150 to 153 °C

[in] Using the record for OCc1ccc(-c2nn(Cc3ccccc3)c3cc[se]c23)o1 [Compound 57] , state its measured melting point.
[out] 126 to 129 °C

[in] # return recorded melting point for input COC(=O)c1ccc(-c2nn(-c3ccccc3OC)c3cc[se]c23)o1 [Compound 41]
[out] 72 to 76 °C

[in] Give reported melting point value for OCc1ccc(-c2nn(-c3ccccc3F)c3cc[se]c23)o1
[out] 178 to 181 °C
